Origin of measurements: PubChem BioAssay (EPA / NIEHS)

Read-out: Plasminogen activator inhibitor-1 (PAI1), SERPINE1 (gene 5054)
Test: BSK_BE3C_PAI1: BioMAP Diversity Plus: BE3C Assay for Plasminogen activator inhibitor-1 (PAI1) Biomarker Activity (AID 2283037)
Settings: primary human bronchial epithelial cells; actives raise or lower the signal
Activity calls are given as the source filed them. Rule for the calls: active = hit-call score of the fitted dose curve at least 0.9, where 1 is the maximum; inactive = score below 0.9.
assay-metric: AC50

O=[N+]([O-])c1c(Cl)c(Cl)c(Cl)c(Cl)c1Cl
inactive
COC(=O)c1ccccc1S(=O)(=O)NC(=O)Nc1nc(C)nc(OC)n1
inactive
CC(C)(C)C(O)/C(=C\c1ccc(Cl)cc1Cl)n1cncn1 (stereo unspecified)
27.6 µM (active)
CCC(C)Nc1c([N+](=O)[O-])cc(C(C)(C)C)cc1[N+](=O)[O-] (stereo unspecified)
inactive
CC(C)(C)C(O)C(Oc1ccc(Cl)cc1)n1cncn1 (stereo unspecified)
inactive
C#CCN1C(=O)COc2cc(F)c(N3C(=O)C4=C(CCCC4)C3=O)cc21
inactive

Request: Any idea what its AC50 is? The molecule is `CCC(C)(C)C(=O)OC1=C(c2ccc(Cl)cc2Cl)C(=O)OC12CCCCC2`
Result: 20 µM (active)

Request: Check `CCc1ccc(C(=O)NN(C(=O)c2cc(C)cc(C)c2)C(C)(C)C)cc1` too.
Result: inactive

Request: Check `CCOc1nc(NC)nc(NC(=O)NS(=O)(=O)c2ccccc2C(=O)OC)n1` too.
Result: inactive

Request: Check `Oc1ccc(Cl)cc1Cc1ccccc1` too.
Result: 34.4 µM (active) [middle of 7 runs]

Request: Check `N#Cc1c(Cl)c(Cl)c(Cl)c(C#N)c1Cl` too.
Result: 2.5 µM (active)

Request: Check `O=[N+]([O-])/N=C1\NCCN1Cc1ccc(Cl)nc1` too.
Result: inactive

* * *

Read-out: Glutamate-cysteine ligase regulatory (GCLM), GCLM (gene 2730)
Experiment: LTEA_HepaRG_GCLM: Life Technologies and Expression Analysis (LTEA) Assay for Glutamate-cysteine ligase regulatory (GCLM) using HepaRG (AID 2283500)
Details: mRNA level, 48 h; actives raise or lower the signal
Calls of active or inactive are those of the source. Rule for the calls: active = hit-call score of the fitted dose curve at least 0.9, where 1 is the maximum; inactive = score below 0.9.
Response enum: True (active), False (inactive)

Request: Returns: the outcome recorded for CC(C)(C)C(O)/C(=C\c1ccc(Cl)cc1Cl)n1cncn1 (configuration not stated) in this assay.
Result: False

Request: Check `CC(C)N(C(=O)COc1nnc(C(F)(F)F)s1)c1ccc(F)cc1` too.
Result: False

Request: Check `N#Cc1c(Cl)c(Cl)c(Cl)c(C#N)c1Cl` too.
Result: False

Request: Check `CNC(=O)Oc1ccccc1OC(C)C` too.
Result: False

Request: Check O=C(NC(=O)c1c(F)cccc1F)Nc1ccc(OC(F)(F)C(F)OC(F)(F)F)c(Cl)c1 (configuration not stated) too.
Result: False

Request: Check `O=[N+]([O-])c1c(Cl)c(Cl)c(Cl)c(Cl)c1Cl` too.
Result: False

Request: Check `CCN(CC)C(=O)SCc1ccc(Cl)cc1` too.
Result: False

Request: Check `COP(=S)(OC)Oc1ccc([N+](=O)[O-])cc1` too.
Result: False

Request: Check CC1(C)C(C=C(Cl)Cl)C1C(=O)OC(C#N)c1ccc(F)c(Oc2ccccc2)c1 (configuration not stated) too.
Result: False

Request: Check `CCCN(CCC)c1c([N+](=O)[O-])cc(C(F)(F)F)cc1[N+](=O)[O-]` too.
Result: False

Request: Check `CN1CSC(=S)N(C)C1` too.
Result: False

Request: Check `CCCN(CCOc1c(Cl)cc(Cl)cc1Cl)C(=O)n1ccnc1` too.
Result: True
